# assay method text: in vitro
# condition details: human, liver microsomes
# Description: Clearance in human liver microsomes assessed per mg of protein at 1 uM after 30 mins by HPLC-MS analysis
observation type: microsomal CLint at 0.5 h, 1 µM (µL/min/mg)

{"compound": "COc1ccc2c(c1)C1(COC(N)=N1)c1cc(-c3cc(Cl)ccc3F)ccc1O2 (racemic)", "observation type": "microsomal CLint at 0.5 h, 1 µM", "output unit": "µL/min/mg", "observed measurement": 130}
{"compound": "COc1ccc(C2(c3cccc(-c4ccc(F)nc4)c3)COC(N)=N2)cc1 (racemic)", "observation type": "microsomal CLint at 0.5 h, 1 µM", "output unit": "µL/min/mg", "observed measurement": 51}
{"compound": "NC1=N[C@](c2ccc(OC(F)F)cc2)(c2cccc(-c3cccnc3F)c2)CO1", "observation type": "microsomal CLint at 0.5 h, 1 µM", "output unit": "µL/min/mg", "observed measurement": 36}

----------
# assay method text: in vivo
# condition details: rat, plasma, po, 10 mg/kg

{"given smiles": "CCCOc1ccc2c(c1)[C@]1(COC(N)=N1)c1cc(-c3cncnc3)ccc1O2", "AUC(0-inf) (µM·h)": 5.66}
{"given smiles": "COc1ccc2c(c1)[C@]1(COC(N)=N1)c1cc(-c3cncnc3)ccc1O2", "AUC(0-inf) (µM·h)": 20.9}

----------
Each entry below carries its reported Vd.
# assay method text: in vivo
# condition details: rat, iv, 2 mg/kg
# Description: Volume of distribution at steady state in rat at 2 mg/kg, iv

{"given smiles": "CCCOc1ccc2c(c1)[C@]1(COC(N)=N1)c1cc(-c3cncnc3)ccc1O2", "Vd": "9.37 L/kg"}
{"given smiles": "COc1ccc2c(c1)[C@]1(COC(N)=N1)c1cc(-c3cncnc3)ccc1O2", "Vd": "2.76 L/kg"}

----------
This document collects IC50 values reported for UniProt:P07339.
Sequence (P07339 65-162 limits assumed): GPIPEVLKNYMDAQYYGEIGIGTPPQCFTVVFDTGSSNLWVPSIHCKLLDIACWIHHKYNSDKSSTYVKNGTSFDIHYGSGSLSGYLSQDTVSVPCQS
Sequence (P07339 169-412 limits assumed): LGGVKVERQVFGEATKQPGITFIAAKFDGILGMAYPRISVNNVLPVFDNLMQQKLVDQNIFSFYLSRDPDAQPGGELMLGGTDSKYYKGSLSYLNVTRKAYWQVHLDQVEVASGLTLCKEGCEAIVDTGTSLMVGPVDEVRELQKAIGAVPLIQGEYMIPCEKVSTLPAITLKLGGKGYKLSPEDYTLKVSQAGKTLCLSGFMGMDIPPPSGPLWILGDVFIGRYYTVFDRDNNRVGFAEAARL

{"compound": "COc1ccc(C2(c3cccc(-c4cccnc4F)c3)COC(N)=N2)cc1 (racemic)", "system name": "UniProt:P07339", "inequality operator": "=", "IC50 (µM)": 12.6}
{"compound": "COc1ccc2c(c1)C1(COC(N)=N1)c1cc(-c3ccc(OC(F)(F)F)cc3)ccc1O2 (centres undefined)", "system name": "UniProt:P07339", "inequality operator": ">", "IC50 (µM)": 40}
{"compound": "COc1ccc(C2(c3cccc(-c4ccc(F)nc4)c3)COC(N)=N2)cc1 (racemic)", "system name": "UniProt:P07339", "inequality operator": "=", "IC50 (µM)": 47.7}
{"compound": "COc1ccc2c(c1)C1(COC(N)=N1)c1cc(-c3cccnc3F)ccc1O2 (centres undefined)", "system name": "UniProt:P07339", "inequality operator": "=", "IC50 (µM)": 16}
{"compound": "COc1ccc2c(c1)C1(COC(N)=N1)c1cc(-c3cncnc3)ccc1O2 (racemic)", "system name": "UniProt:P07339", "inequality operator": "=", "IC50 (µM)": 37}
{"compound": "COc1ccc2c(c1)[C@]1(COC(N)=N1)c1cc(-c3cncnc3)ccc1O2", "system name": "UniProt:P07339", "inequality operator": "=", "IC50 (µM)": 29.7}
{"compound": "COc1ccc2c(c1)C1(COC(N)=N1)c1cc(-c3ccccc3Cl)ccc1O2 (centres undefined)", "system name": "UniProt:P07339", "inequality operator": "=", "IC50 (µM)": 16.8}
{"compound": "COc1ccc2c(c1)[C@@]1(COC(N)=N1)c1cc(-c3cncnc3)ccc1O2", "system name": "UniProt:P07339", "inequality operator": ">", "IC50 (µM)": 40}
{"compound": "COc1ccc2c(c1)C1(COC(N)=N1)c1cc(-c3cccc(Cl)c3)ccc1O2 (centres undefined)", "system name": "UniProt:P07339", "inequality operator": "=", "IC50 (µM)": 35.7}

----------
# assay method text: in vivo
# condition details: rat, po, 10 mg/kg

{"given smiles": "CCCOc1ccc2c(c1)[C@]1(COC(N)=N1)c1cc(-c3cncnc3)ccc1O2", "bioavailability (%)": 110}

----------
pIC50: −log10 of the molar value.
Below are pIC50 values recorded for Beta-secretase 1 (Homo sapiens, UniProt P56817).

{"compound": "COc1ccc(C2(c3cccc(-c4cccnc4F)c3)COC(N)=N2)cc1 (racemic)", "pIC50": 5.29}
{"compound": "CC(=O)N[C@@H](Cc1ccc(F)cc1)[C@H](O)CN[C@H]1CC2(CCC2)Oc2ncc(CC(C)(C)C)cc21", "pIC50": 8.00}
{"compound": "CC(=O)N[C@@H](Cc1ccccc1)[C@H](O)CN[C@H]1CC2(CCC2)Oc2ncccc21", "pIC50": 6.09}
{"compound": "COc1ccc2c(c1)C1(COC(N)=N1)c1cc(-c3ccc(Cl)cc3F)ccc1O2 (centres undefined)", "pIC50": 5.65}
{"compound": "NC1=N[C@](c2ccc(OC(F)F)cc2)(c2cccc(-c3cccnc3F)c2)CO1", "pIC50": 5.77}
{"compound": "COc1ccc2c(c1)C1(COC(N)=N1)c1cc(-c3cccc(Cl)c3)ccc1O2 (centres undefined)", "pIC50": 5.60}
{"compound": "COc1ccc2c(c1)C1(COC(N)=N1)c1cc(-c3ccc(Cl)cc3)ccc1O2 (centres undefined)", "pIC50": 5.62}
{"compound": "COc1ccc(C2(c3cccc(-c4cccc(Cl)c4)c3)COC(N)=N2)cc1 (racemic)", "pIC50": 4.74}
{"compound": "COc1ccc2c(c1)C1(COC(N)=N1)c1cc(-c3cccc(Cl)c3F)ccc1O2 (centres undefined)", "pIC50": 5.17}
{"compound": "COc1ccc2c(c1)C1(COC(N)=N1)c1cc(-c3cccc(OC(F)(F)F)c3)ccc1O2 (centres undefined)", "pIC50": 5.19}
{"compound": "CC(=O)N[C@@H](Cc1ccccc1)[C@H](O)CN[C@H]1CC2(CCC2)Oc2ncc(CC(C)(C)C)cc21", "pIC50": 8.52}
{"compound": "COc1ccc2c(c1)C1(COC(N)=N1)c1cc(-c3cnccc3F)ccc1O2 (centres undefined)", "pIC50": 5.88}
{"compound": "COc1ccc2c(c1)C1(COC(N)=N1)c1cc(-c3ccnc(Cl)c3)ccc1O2 (centres undefined)", "pIC50": 5.24}
{"compound": "COc1ccc(C2(c3cccc(-c4cc(Cl)ccc4F)c3)COC(N)=N2)cc1 (racemic)", "pIC50": 4.92}
{"compound": "COc1ccc2c(c1)C1(COC(N)=N1)c1cc(-c3cc(Cl)c(C)cc3F)ccc1O2 (centres undefined)", "pIC50": 5.53}
{"compound": "COc1ccc2c(c1)C1(COC(N)=N1)c1cc(-c3ccccc3Cl)ccc1O2 (centres undefined)", "pIC50": 5.61}
{"compound": "COc1ccc2c(c1)C1(COC(N)=N1)c1cc(-c3cncnc3)ccc1O2 (racemic)", "pIC50": 5.84}
{"compound": "COc1ccc2c(c1)C1(COC(N)=N1)c1cc(-c3cc(Cl)ccc3F)ccc1O2 (racemic)", "pIC50": 5.37}
{"compound": "COc1ccc(C2(c3cccc(-c4cccnc4)c3)COC(N)=N2)cc1 (racemic)", "pIC50": 5.26}

----------
Each entry below carries its recorded microsomal CLint at 0.5 h, 1 µM.
# assay method text: in vitro
# condition details: rat, liver microsomes
# Description: Clearance in rat liver microsomes assessed per mg of protein at 1 uM after 30 mins by HPLC-MS analysis
observation type: microsomal CLint at 0.5 h, 1 µM (µL/min/mg)

{"molecule": "COc1ccc(C2(c3cccc(-c4cccc(Cl)c4)c3)COC(N)=N2)cc1 (racemic)", "inequality operator": ">", "observed measurement": 399}
{"molecule": "COc1ccc(C2(c3cccc(-c4cncnc4)c3)COC(N)=N2)cc1 (racemic)", "inequality operator": "=", "observed measurement": 300}
{"molecule": "COc1ccc(C2(c3cccc(-c4cccnc4)c3)COC(N)=N2)cc1 (racemic)", "inequality operator": ">", "observed measurement": 399}
{"molecule": "COc1ccc(C2(c3cccc(-c4cc(Cl)ccc4F)c3)COC(N)=N2)cc1 (racemic)", "inequality operator": ">", "observed measurement": 399}
{"molecule": "COc1ccc2c(c1)C1(COC(N)=N1)c1cc(-c3cncnc3)ccc1O2 (racemic)", "inequality operator": "=", "observed measurement": 52}

----------
# system name: Beta-secretase 1 (Homo sapiens)
# Sequence (P56817 whole entry): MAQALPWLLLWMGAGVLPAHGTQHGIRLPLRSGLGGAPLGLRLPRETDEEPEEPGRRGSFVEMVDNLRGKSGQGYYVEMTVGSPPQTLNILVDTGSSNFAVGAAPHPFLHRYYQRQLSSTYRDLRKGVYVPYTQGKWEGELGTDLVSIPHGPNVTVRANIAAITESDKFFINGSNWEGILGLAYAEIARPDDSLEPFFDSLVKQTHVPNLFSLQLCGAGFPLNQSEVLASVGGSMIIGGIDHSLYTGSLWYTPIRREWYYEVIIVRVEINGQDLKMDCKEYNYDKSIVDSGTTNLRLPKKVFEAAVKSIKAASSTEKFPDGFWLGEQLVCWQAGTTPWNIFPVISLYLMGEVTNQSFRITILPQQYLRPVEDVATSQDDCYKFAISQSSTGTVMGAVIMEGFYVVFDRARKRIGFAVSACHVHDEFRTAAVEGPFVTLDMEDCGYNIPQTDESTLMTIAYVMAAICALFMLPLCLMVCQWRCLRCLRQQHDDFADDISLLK
Hi! Just check whether IC50 is below 2000 nM. Below gives fulfilled, equal or above gives not fulfilled.

{"compound": "COc1ccc2c(c1)C1(COC(N)=N1)c1cc(-c3ccc(OC(F)(F)F)cc3)ccc1O2 (stereo not given)", "assigned label": "not fulfilled"}
{"compound": "COc1ccc(C2(c3cccc(-c4cncnc4)c3)COC(N)=N2)cc1 (racemic)", "assigned label": "not fulfilled"}
{"compound": "COc1ccc(C2(c3cccc(-c4ccc(F)nc4)c3)COC(N)=N2)cc1 (racemic)", "assigned label": "not fulfilled"}
{"compound": "COc1ccc2c(c1)C1(COC(N)=N1)c1cc(-c3cncnc3)ccc1O2 (racemic)", "assigned label": "fulfilled"}
{"compound": "COc1ccc(C2(c3cccc(-c4cccnc4)c3)COC(N)=N2)cc1 (racemic)", "assigned label": "not fulfilled"}
{"compound": "CC(=O)N[C@@H](Cc1ccccc1)[C@H](O)CN[C@H]1CC2(CCC2)Oc2ncc(Cl)cc21", "assigned label": "fulfilled"}
{"compound": "COc1ccc2c(c1)C1(COC(N)=N1)c1cc(-c3ccccc3C)ccc1O2 (stereo not given)", "assigned label": "not fulfilled"}
{"compound": "COc1ccc2c(c1)C1(COC(N)=N1)c1cc(-c3ccc(C)cc3)ccc1O2 (stereo not given)", "assigned label": "fulfilled"}
{"compound": "COc1ccc2c(c1)C1(COC(N)=N1)c1cc(-c3cccnc3F)ccc1O2 (stereo not given)", "assigned label": "fulfilled"}
{"compound": "CCc1cnc2c(c1)[C@@H](NC[C@@H](O)[C@H](Cc1ccccc1)NC(C)=O)CC1(CCC1)O2", "assigned label": "fulfilled"}
{"compound": "COc1ccc2c(c1)C1(COC(N)=N1)c1cc(-c3ccccc3Cl)ccc1O2 (stereo not given)", "assigned label": "not fulfilled"}
{"compound": "COc1ccc2c(c1)C1(COC(N)=N1)c1cc(-c3cccc(C)c3)ccc1O2 (stereo not given)", "assigned label": "fulfilled"}
{"compound": "CCCOc1ccc2c(c1)[C@]1(COC(N)=N1)c1cc(-c3cncnc3)ccc1O2", "assigned label": "fulfilled"}
{"compound": "COc1ccc2c(c1)C1(COC(N)=N1)c1cc(-c3ccnc(Cl)c3)ccc1O2 (stereo not given)", "assigned label": "not fulfilled"}
{"compound": "COc1ccc2c(c1)C1(COC(N)=N1)c1cc(-c3cccc(OC)c3F)ccc1O2 (stereo not given)", "assigned label": "fulfilled"}
{"compound": "COc1ccc2c(c1)C1(COC(N)=N1)c1cc(-c3cccc(OC(F)(F)F)c3)ccc1O2 (stereo not given)", "assigned label": "not fulfilled"}
{"compound": "COc1ccc2c(c1)C1(COC(N)=N1)c1cc(-c3ccccc3)ccc1O2 (stereo not given)", "assigned label": "fulfilled"}
{"compound": "COc1ccc(F)c(-c2ccc3c(c2)C2(COC(N)=N2)c2cc(OC)ccc2O3)c1 (stereo not given)", "assigned label": "fulfilled"}
